B1: tRNA (parent)
chain: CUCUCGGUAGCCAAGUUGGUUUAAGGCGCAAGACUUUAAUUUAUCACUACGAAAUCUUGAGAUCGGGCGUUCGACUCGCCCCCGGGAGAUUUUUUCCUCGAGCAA

Variants of: B1
Assay: nonsense suppression (GFP-seq) (ratio to wild type); higher = more function; SUP4oc tRNA, yeast GFP reporter sort-seq
Fewer inactive variants are shown than the library holds.
Rule: True for nonsense suppression not less than 0.1, False for anything less.

Illustrative cases are given below, each with its answer.
U8C A24U U71C
False
A14G G18A U21C A30G A33G C79A C82A A89U
False
U22C C68U
True
A13G C27A C29G A33U U76C G86U
False
C5G U57G U71G
False

Check the entry U21C U63G : does nonsense suppression equal or exceed 0.1? True

Record U21G G78U ; criterion: nonsense suppression no lower than 0.1. Met? False

Hello, I need to know if A33U has measured nonsense suppression not below 0.1. Thanks! False

# bool: nonsense suppression of U4A G19A A31U A62G >= 0.1 False

Could you verify whether the entry U16C A23G G28U shows nonsense suppression of no less than 0.1? False

Reported nonsense suppression at or above 0.1? C1U C3U C12U False
